- target system: BRG-1 (Homo sapiens)
- Sequence (P51532 whole entry): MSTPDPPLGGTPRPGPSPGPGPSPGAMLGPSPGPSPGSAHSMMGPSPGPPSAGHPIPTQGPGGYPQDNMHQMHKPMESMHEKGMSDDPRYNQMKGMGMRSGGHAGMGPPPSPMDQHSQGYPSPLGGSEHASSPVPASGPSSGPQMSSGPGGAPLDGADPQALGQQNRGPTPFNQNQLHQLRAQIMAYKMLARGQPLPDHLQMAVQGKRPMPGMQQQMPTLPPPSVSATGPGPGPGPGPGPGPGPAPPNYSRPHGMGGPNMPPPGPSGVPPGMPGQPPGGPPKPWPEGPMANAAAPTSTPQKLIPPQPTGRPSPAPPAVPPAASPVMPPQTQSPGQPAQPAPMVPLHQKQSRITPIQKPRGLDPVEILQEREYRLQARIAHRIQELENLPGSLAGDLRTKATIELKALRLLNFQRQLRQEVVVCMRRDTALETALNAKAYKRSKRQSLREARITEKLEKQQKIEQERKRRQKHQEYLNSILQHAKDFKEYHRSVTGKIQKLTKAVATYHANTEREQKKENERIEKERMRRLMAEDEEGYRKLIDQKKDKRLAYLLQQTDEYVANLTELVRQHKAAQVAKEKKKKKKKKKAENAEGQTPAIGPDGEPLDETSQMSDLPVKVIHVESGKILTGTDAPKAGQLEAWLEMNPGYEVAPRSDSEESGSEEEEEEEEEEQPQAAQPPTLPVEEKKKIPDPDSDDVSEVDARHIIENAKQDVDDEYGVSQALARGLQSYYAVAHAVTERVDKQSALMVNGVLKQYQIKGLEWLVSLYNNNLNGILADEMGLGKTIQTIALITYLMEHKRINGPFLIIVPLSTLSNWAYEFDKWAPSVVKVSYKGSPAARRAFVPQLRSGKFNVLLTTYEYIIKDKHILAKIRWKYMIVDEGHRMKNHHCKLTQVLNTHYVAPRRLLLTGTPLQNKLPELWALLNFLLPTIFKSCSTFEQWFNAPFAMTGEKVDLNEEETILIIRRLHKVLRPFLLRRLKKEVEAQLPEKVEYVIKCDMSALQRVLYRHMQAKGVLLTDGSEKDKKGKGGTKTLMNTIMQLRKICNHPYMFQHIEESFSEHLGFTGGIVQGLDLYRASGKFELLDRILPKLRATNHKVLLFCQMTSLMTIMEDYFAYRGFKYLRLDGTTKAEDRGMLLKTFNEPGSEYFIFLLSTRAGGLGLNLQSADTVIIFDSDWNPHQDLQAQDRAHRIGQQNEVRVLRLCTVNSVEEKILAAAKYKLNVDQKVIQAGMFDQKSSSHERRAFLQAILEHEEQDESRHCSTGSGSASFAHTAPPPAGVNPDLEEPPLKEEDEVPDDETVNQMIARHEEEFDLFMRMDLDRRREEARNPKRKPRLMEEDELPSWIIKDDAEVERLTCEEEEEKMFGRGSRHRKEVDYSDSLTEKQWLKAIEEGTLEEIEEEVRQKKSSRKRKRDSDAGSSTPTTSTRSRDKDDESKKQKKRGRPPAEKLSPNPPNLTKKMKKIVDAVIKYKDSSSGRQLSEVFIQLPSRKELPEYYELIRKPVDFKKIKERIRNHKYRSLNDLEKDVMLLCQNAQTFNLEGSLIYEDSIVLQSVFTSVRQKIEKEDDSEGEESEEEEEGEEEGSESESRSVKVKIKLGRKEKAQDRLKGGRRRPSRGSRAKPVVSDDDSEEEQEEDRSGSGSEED
- procedure details: ATPase catalytic activity assay (ADP-Glo), BRG-1
- assay context: 1 h, read-out: BRG1 Max % Inhibition, ADP-Glo, 30 nM BRG-1, 400 μM ATP
measured endpoint: Emax (%)

Worked examples, 5 molecules total:
                                   molecule  measured_endpoint  reading
0  C[C@@]1(C#N)COCc2ccc(C(=O)NCc3cc(OCc4ccccc4)ccn3)cc21 [Compound 6]               Emax       44
1  C[C@@]1(F)COCc2ccc(C(=O)NCc3cc4nc(-c5cccc(C6(O)CC6)n5)ccc4cn3)cc21 [Compound 271]               Emax       95
2  C[C@@]1(F)COCc2ccc(C(=O)NCc3cc4nc(-c5cccc(N=S(C)(C)=O)n5)ccc4cn3)cc21 [Compound 273]               Emax       64
3  CN(C)c1ncc(-c2ccc3cnc(CNC(=O)c4ccc5c(c4)[C@](C)(C#N)COC5)cc3n2)cn1 [Compound 472]               Emax       51
4  CN(C)c1nccc(N2CCc3cnc(CNC(=O)c4ccc5c(c4)[C@](C)(C#N)COC5)cc3C2)n1 [Compound 326]               Emax       70

a = C[C@@]1(F)COCc2ccc(C(=O)NCc3cc4nc(-c5cccc(N6CCC6)n5)ccc4cn3)cc21 [Compound 295]
b = C[C@@]1(C#N)COCc2ccc(C(=O)NCc3cc4nc(-c5cnn(C(F)F)c5)ccc4cn3)cc21 [Compound 504]
c = COCCn1cc(-c2ccc3cnc(CNC(=O)c4ccc5c(c4)[C@](C)(C#N)COC5)cc3n2)c(OC)n1 [Compound 203]
Task: Ascending by Emax, please: list the molecules accordingly. Your task in answering is to list the labels in the requested order.
Output: c, b, a

P = C[C@@]1(C#N)COCc2ccc(C(=O)NCc3cc4cc(-c5cccc(C6(O)CC6)n5)ccc4cn3)cc21 [Compound 262]
Q = C[C@@]1(F)COCc2ccc(C(=O)NCc3cc4nc(-c5cccc(C6(O)CCOCC6)n5)ccc4cn3)cc21 [Compound 302]
R = COC(=O)N1CCC(C#Cc2ccnc(CNC(=O)c3ccc4c(c3)[C@](C)(C#N)COC4)c2)C1 (some centres unmarked) [Compound 22]
Task: Sort the 3 molecules by Emax; largest first, smallest last. Your task in answering is to list the labels in the requested order.
Output: P, Q, R

P = COc1nn(C)cc1-c1ccc2cnc(CNC(=O)c3ccc4c(c3)[C@](C)(F)COC4)cc2n1 [Compound 343]
Q = C[C@@]1(C#N)CCOc2ccc(C(=O)NCc3cc4nc(-c5ccccc5)sc4cn3)cc21 [Compound 118]
Task: Param pair: P , Q . Output: the one whose Emax is numerically greater. Your answer should be the label attached to the chosen record.
Output: P

a = C[C@@]1(C#N)COCc2ccc(C(=O)NCc3cc4cc(-c5ccccc5)ccc4nn3)cc21 [Compound 494]
b = COc1nn(C2CC2(F)F)cc1-c1ccc2cnc(CNC(=O)c3ccc4c(c3)[C@](C)(C#N)COC4)cc2n1 (some centres unmarked) [Compound 140]
Task: Returns: the label, a or b , whose recorded Emax is the lower number. Your answer should be the label attached to the chosen record.
Output: b
(b: 48%, a: 90%)
